Ratio OD(Variant)/OD(WT) values, listed per item
target: HRgpA-6H (Porphyromonas gingivalis) (UniProt P28784); experiment: ELISA, coated HRgpA-6H
Hey, just send me the number, nothing else.

- binder: "KB001 mouse Fab VL L55T (Fab, V domains shown) VH: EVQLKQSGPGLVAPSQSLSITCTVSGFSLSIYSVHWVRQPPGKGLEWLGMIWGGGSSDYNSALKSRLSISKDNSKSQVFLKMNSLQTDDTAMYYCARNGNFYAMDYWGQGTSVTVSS VL: QIVLTQSPAIMSASLGERVTMTCTASSSVSSSFLHWYQQKPGSSPQLWIYSTSNTASGVPARFSGSGSGTSYSLTISSMEAEDAATYYCHQYHHSPYIYTFGGGTKLEIK"
  Ratio OD(Variant)/OD(WT): 0.928

Record summary for KB001 mouse Fab VH N60S (Fab, V domains shown) VH: EVQLKQSGPGLVAPSQSLSITCTVSGFSLSIYSVHWVRQPPGKGLEWLGMIWGGGSSDYSSALKSRLSISKDNSKSQVFLKMNSLQTDDTAMYYCARNGNFYAMDYWGQGTSVTVSS VL: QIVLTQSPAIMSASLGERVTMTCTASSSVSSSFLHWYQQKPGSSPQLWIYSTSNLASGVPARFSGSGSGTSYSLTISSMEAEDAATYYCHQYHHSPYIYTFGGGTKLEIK : reported Ratio OD(Variant)/OD(WT) = 0.916

Record summary for KB001 mouse Fab VL N54A (Fab, V domains shown) VH: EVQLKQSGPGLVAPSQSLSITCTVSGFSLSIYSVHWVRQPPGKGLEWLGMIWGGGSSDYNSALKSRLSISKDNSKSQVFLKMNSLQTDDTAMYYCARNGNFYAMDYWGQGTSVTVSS VL: QIVLTQSPAIMSASLGERVTMTCTASSSVSSSFLHWYQQKPGSSPQLWIYSTSALASGVPARFSGSGSGTSYSLTISSMEAEDAATYYCHQYHHSPYIYTFGGGTKLEIK : reported Ratio OD(Variant)/OD(WT) = 0.99

Record summary for KB001 mouse Fab VL S30E (Fab, V domains shown) VH: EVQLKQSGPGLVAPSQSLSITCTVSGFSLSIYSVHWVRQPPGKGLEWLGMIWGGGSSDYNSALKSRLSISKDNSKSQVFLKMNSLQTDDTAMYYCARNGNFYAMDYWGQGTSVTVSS VL: QIVLTQSPAIMSASLGERVTMTCTASSSVESSFLHWYQQKPGSSPQLWIYSTSNLASGVPARFSGSGSGTSYSLTISSMEAEDAATYYCHQYHHSPYIYTFGGGTKLEIK : reported Ratio OD(Variant)/OD(WT) = 0.943

Record summary for KB001 mouse Fab VL Y97E (Fab, V domains shown) VH: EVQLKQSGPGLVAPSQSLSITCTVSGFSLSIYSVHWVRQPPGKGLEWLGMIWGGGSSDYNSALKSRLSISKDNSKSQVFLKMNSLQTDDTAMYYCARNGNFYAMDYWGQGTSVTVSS VL: QIVLTQSPAIMSASLGERVTMTCTASSSVSSSFLHWYQQKPGSSPQLWIYSTSNLASGVPARFSGSGSGTSYSLTISSMEAEDAATYYCHQYHHSPEIYTFGGGTKLEIK : reported Ratio OD(Variant)/OD(WT) = 1
